# subject.of.test: human CRF1 receptor (Homo sapiens)
# Sequence (P34998 24-415): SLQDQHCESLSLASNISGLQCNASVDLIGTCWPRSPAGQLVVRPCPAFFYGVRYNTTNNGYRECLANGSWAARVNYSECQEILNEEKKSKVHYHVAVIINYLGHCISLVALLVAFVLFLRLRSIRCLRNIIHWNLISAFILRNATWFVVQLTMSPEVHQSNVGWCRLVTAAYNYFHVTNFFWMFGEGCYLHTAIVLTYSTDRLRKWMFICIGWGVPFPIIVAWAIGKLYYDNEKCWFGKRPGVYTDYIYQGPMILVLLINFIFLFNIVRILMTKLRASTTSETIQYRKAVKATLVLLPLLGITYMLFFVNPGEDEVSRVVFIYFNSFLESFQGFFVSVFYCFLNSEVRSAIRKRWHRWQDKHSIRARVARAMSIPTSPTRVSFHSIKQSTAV
# assay.details: Measurement of CRF Binding Inhibitory Rate (receptor binding experiment with 125I-CRF)
# experimental.setup: human CRF1 receptor expressing CHO cellular membrane fraction, 50 pM 125I-CRF, room temperature 1.5 hr, 0.05 nM to 10 μM of compound; read-out: IC50 values (CRF binding inhibition)
# Description: Measurement of CRF Binding Inhibitory Rate A receptor binding experiment was carried out using a human CRF1 receptor expressing CHO cellular membrane fraction and ovine CRF, [^125I]-tyr^0(^125I-CRF). […] After drying the glass filter, a liquid scintillation cocktail (Microscinti 0, Perkin Elmer) was added, and the radioactivity of ^125I-CRF remaining on a glass filter was measured using Topcount (Perkin Elmer). […]
pIC50: −log10 of the molar value.
Please respond with reported pIC50 for every item in the list.

Param item = CCC(CC)c1ccc(Cl)c2nc3n(c12)CCCCN3c1ccc(N(C)C)cc1OC(F)(F)F ; retrieve measured pIC50. > 6.00

Param item: Cc1cc(S(C)(=O)=O)ccc1N1CCCn2c1nc1c(Cl)ccc(C(OC(F)F)C(F)(F)F)c12 (centres unmarked) > 6.00

Param item: CCC(OC(C)=O)c1ccc(Cl)c2nc3n(c12)CCCN3c1ccc(Cl)cc1Cl (racemic) [Example 238] > 6.00

Param item: CCC(OC(C)C)c1ccc(Cl)c2nc3n(c12)CCCN3c1ccc(Cl)cc1Cl (centres unmarked) > 6.00

Param item: CCC(CC)c1ccc(Cl)c2nc3n(c12)CC(C)N3c1cnc(N(C)C)cc1C (centres unmarked) > 6.00

Param item: CCC(O)(CC)c1ccc(Cl)c2nc3n(c12)CCCN3c1ccc(Cl)cc1C(F)(F)F > 6.00

Param item: Clc1ccc(N2CCCn3c2nc2c(Cl)ccc(N(C4CC4)C4CC4)c23)c(Cl)c1 > 6.00

Param item: CCC(NS(C)(=O)=O)c1ccc(Cl)c2nc3n(c12)CCCN3c1ccc(Cl)cc1Cl (centres unmarked) > 6.00

Param item: CCN(CC)c1cccc2nc3n(c12)CCN(C)C3c1ccc(Cl)cc1Cl (centres unmarked) > 6.00

Param item: CCOc1ccc(N2CCCn3c2nc2c(Cl)ccc(C(OC(F)F)C(F)(F)F)c23)c(C)n1 (centres unmarked) > 6.00

Param item: COc1ccc(N2CCCn3c2nc2c(Cl)ccc(C(OCC(F)(F)F)C4CC4)c23)c(C)c1 (centres unmarked) > 6.00

Param item: CCN(CC)c1cc(F)cc2nc3n(c12)CCCOC3c1ccc(Cl)cc1Cl (centres unmarked) > 6.00

Param item: Cc1nc(N(C)C)ccc1N1CCCn2c1nc1c(Cl)ccc(C(OC(F)F)C(F)(F)F)c12 (centres unmarked) > 6.00

Param item: CCC(CC)c1ccc(Cl)c2nc3n(c12)CCCCN3c1cnc(N2CCCC2)cc1C > 6.00

Param item: CCC(CC)c1ccc(Cl)c2nc3n(c12)CCCCN3c1cnc(OC)cc1C > 6.00

Param item: CCN(CC)c1ccc(Cl)c2nc3n(c12)CCCCN3c1ccc(Cl)cc1Cl > 6.00

Param item: CCC(CCO)c1ccc(Cl)c2nc3n(c12)CCCN3c1ccc(Cl)cc1Cl (centres unmarked) > 6.00

----------
endpoint: melting point

Param item = CCN(CC)c1cccc2nc3n(c12)CCOC3c1ccc(Cl)cc1Cl (centres unmarked) [Example 501] ; retrieve measured melting point. 130 to 131 °C

Param item: CCC(OC(C)=O)c1ccc(Cl)c2nc3n(c12)CCCN3c1ccc(Cl)cc1Cl (racemic) [Example 238] 174 to 176 °C

Param item: Cc1cnc(N2CCCn3c2nc2c(Cl)ccc(C(O)(C4CC4)C4CC4)c23)c(C)n1 [Example 176] 152 to 153 °C

Param item: CCC(NC(=O)C(F)F)c1ccc(Cl)c2nc3n(c12)CCCN3c1ccc(Cl)cc1Cl (centres unmarked) [Example 463] 248 to 250 °C

Param item: CCC(CC)c1ccc(Cl)c2nc3n(c12)CCCCN3c1ccc(Cl)cc1 [Example 23] 133 to 135 °C

Param item: OC(c1cccc2nc3n(c12)CCCN3c1ccc(Cl)cc1Cl)C1CC1 (centres unmarked) [Example 95] 208 to 209 °C

Param item: CCC(CC)c1ccc(Cl)c2nc3n(c12)CC(=O)N3c1ccc(Cl)cc1Cl [Example 4] 200 to 202 °C

Param item: CCOC(c1ccc(Cl)c2nc3n(c12)CCCN3c1ccc(OC)nc1C)C(F)(F)F (centres unmarked) [Example 281] 168 to 170 °C
